// data source = PubChem BioAssay (EPA / NIEHS)

# Assay Overview: Tanguay_ZF_120hpf_OTIC_legacy: (Legacy) Oregon State University Tanguay Lab 120 Hour Post-fertilization zebrafish Assay for Otic Vesicle Malformation (AID 2283639)
Results filed as inconclusive are left out. Calls of active or inactive are those of the source. Rule for the calls: active = hit-call score of the fitted dose curve at least 0.9, where 1 is the maximum; inconclusive = response in the unintended direction; inactive = score below 0.9.
Parameter call: string, one of label 1 = active, label 0 = inactive

Sample answers from the record:
# outcome recorded in this test, key = Cc1ccc(C(C)C)cc1 label 0

# outcome recorded in this test, key = CCCCOC(=O)c1ccc(O)cc1 label 1

# outcome recorded in this test, key = CCCCCCCCCCCC[N+](C)(C)C label 0

# outcome recorded in this test, key = Oc1ccccc1 label 0

# outcome recorded in this test, key = CCCCCCCCCCCO label 0

Next:
# outcome recorded in this test, key = CC(C)(C)c1cc(/C=C2\SC(N)=NC2=O)cc(C(C)(C)C)c1O label 0

# outcome recorded in this test, key = Cc1cccc2ccccc12 label 0

* * *

# Assay Overview: APR_HepG2_MitoMass_24hr: Apredica 24-hour HepG2 Assay for Mitochondrial Mass (AID 2282912)
# Reported Conditions: high-content imaging, actives raise or lower the signal
Calls of active or inactive are those of the source. How the source made its calls: active means hit-call score of the fitted dose curve at least 0.9, where 1 is the maximum; inactive means score below 0.9.
Parameter call: string, one of YES (active), NO (inactive)

# outcome recorded in this test, key = COc1ccc2cc(S(=O)(=O)N[C@H](CC(=O)N[C@H](Cc3ccc(CN4[C@H](C)CCC[C@@H]4C)cc3)C(=O)N(C)C(C)C)c3ccc4c(c3)OCO4)ccc2c1 YES

# outcome recorded in this test, key = CCCCCCCCCCCO NO

# outcome recorded in this test, key = CCCOC(=O)c1cc(O)c(O)c(O)c1 NO

# outcome recorded in this test, key = CCCCCc1ccc(N)cc1 NO

# outcome recorded in this test, key = CC[C@H](NC(=O)c1cc(F)ccc1NS(=O)(=O)c1cccc2cccnc12)c1ccccc1 NO

Next:
# outcome recorded in this test, key = O=C=NCCCCCCN=C=O NO

# outcome recorded in this test, key = c1ccc2n[nH]nc2c1 NO

# outcome recorded in this test, key = CCN(Cc1cccnc1)C(=O)c1cccc(Cl)c1[C@]1(C)C(=O)N(Cc2ccc(OC)cc2OC)c2ccc(Cl)cc21 NO

* * *

# Read-out: HGF (gene 3082)
# Assay Overview: LTEA_HepaRG_HGF: Life Technologies and Expression Analysis (LTEA) Assay for Hepatocyte Growth Facto (HGF) using HepaRG (AID 2283505)
# Reported Conditions: mRNA level, 48 h; actives raise or lower the signal
# Description: LTEA_HepaRG is a cell based, multiplexed-readout assay that uses HepaRG, a human liver cell line, with measurements taken at 48 hours after chemical dosing on a 96-well plate.LTEA_HepaRG_HGF is one of 102 assay component(s) measured in the LTEA HepaRG cell culture assay. It is a marker of Cell proliferation, survival, death.Data from the assay component LTEA_HepaRG_HGF was analyzed into 1 endpoint. […]
Activity calls are given as the source filed them. Rule for the calls: active = hit-call score of the fitted dose curve at least 0.9, where 1 is the maximum; inactive = score below 0.9.
Parameter call: string, one of active, inactive

# outcome recorded in this test, key = CCCCOC(=O)CC(CC(=O)OCCCC)(OC(C)=O)C(=O)OCCCC inactive

# outcome recorded in this test, key = CCCC(=O)OCCC(C)C inactive

# outcome recorded in this test, key = C[C@]12CC[C@@H]3c4ccc(O)cc4CC[C@H]3[C@@H]1CC[C@H]2O inactive

Now let's try a different one.
# outcome recorded in this test, key = CCCOC(=O)c1cc(O)c(O)c(O)c1 inactive
